These measurements were taken from patent US20210253718A1.

target-or-system: FZD7 cysteine-rich domain (CRD), MYC-tagged and GPI-anchored on CHO cells (human, UniProt O75084 45-169)
run-description: flow cytometry, CHO-CRD cells;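 note: flow cytometry of Fab binding to CHO cells overexpressing a Frizzled CRD, with binding defined as median fluorescence over twice that of CHO cells lacking any Frizzled CRD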
readout-name: median fluorescence
Lab note: jot down the number only; don't add units.

Answered cases to consult:
[[record]]
binder = "Fab-2916 (Fab, V domains shown, Fab) VH: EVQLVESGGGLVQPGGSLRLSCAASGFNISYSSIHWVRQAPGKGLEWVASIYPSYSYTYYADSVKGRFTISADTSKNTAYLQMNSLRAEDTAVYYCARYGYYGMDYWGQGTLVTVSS VL: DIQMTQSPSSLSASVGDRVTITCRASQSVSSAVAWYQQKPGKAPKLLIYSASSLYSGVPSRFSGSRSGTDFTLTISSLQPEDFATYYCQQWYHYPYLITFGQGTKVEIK"
readout_name = "median fluorescence"
test_value = 36.2

[[record]]
binder = "Fab-2917 (Fab, V domains shown, Fab; also called Fv-2917) VH: EVQLVESGGGLVQPGGSLRLSCAASGFNFSSSSIHWVRQAPGKGLEWVASISSSYGYTYYADSVKGRFTISADTSKNTAYLQMNSLRAEDTAVYYCARAVWYYWWVWGGFDYWGQGTLVTVSS VL: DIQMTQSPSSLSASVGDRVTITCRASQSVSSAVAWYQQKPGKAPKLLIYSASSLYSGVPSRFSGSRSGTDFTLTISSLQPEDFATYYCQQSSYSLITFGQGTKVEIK"
readout_name = "median fluorescence"
test_value = 20.5


# next binder below
[Q] Which median fluorescence value belongs to Fab-2913 (Fab, V domains shown, Fab; also called Fv-2913) VH: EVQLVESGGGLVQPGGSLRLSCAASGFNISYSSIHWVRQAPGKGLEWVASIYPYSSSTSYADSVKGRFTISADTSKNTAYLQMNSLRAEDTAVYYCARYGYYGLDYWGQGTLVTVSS VL: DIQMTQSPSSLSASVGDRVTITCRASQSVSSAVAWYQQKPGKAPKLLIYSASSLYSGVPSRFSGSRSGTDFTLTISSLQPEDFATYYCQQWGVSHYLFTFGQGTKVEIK ?
[A] 34.9
